# test_method_notes: compound autofluorescence in calcium buffer – biochemical, fluorescence, no RTF in test wells, artefact control for cardiac thin filament activator project, dose response (AID 504697);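 also: emission near 535 nm under roughly 485 nm excitation as for IANBD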
# recorded_conditions: compound-only fluorescence in RTF assay buffer with Ca2+ (no RTF in test wells), artifact counterscreen
Activity calls are given as the source filed them.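 The calls were made as follows: active = EC50 at or below 10 µM; inactive = EC50 above 10 µM.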
// reported EC50 for each item listed

>  <compound>
Cc1ccc(NC(=O)COc2ccc(/C=N/NC(=O)CSCc3ccccc3)cc2)cc1

>  <EC50>
> 71.5 µM (inactive)

$$$$
>  <compound>
Cn1ncc2c(O/N=C(\N)c3ccc(C(F)(F)F)cc3)ncnc21

>  <EC50>
> 71.5 µM (inactive)

$$$$

Ask | Can you share its EC50? I mean this compound: COc1ccc(CCNC(=O)COC(=O)c2cc(=O)[nH]c3ccccc23)cc1
Reply | > 71.5 µM (inactive)

Ask | And for Cc1sc(NC(=O)CSc2nnc(C(C)C)n2C)c(C#N)c1C ?
Reply | > 71.5 µM (inactive)

Ask | And for Cn1nccc1NC(=O)Nc1cccc(Cl)c1Cl ?
Reply | > 71.4 µM (inactive)

----------
// reported EC50 for each item listed
# test_method_notes: compound autofluorescence in calcium buffer – biochemical, fluorescence, no RTF in test wells, artefact control for cardiac thin filament activator project, dose response (AID 504697);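 also: emission near 535 nm under roughly 485 nm excitation as for IANBD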
# recorded_conditions: compound-only fluorescence in RTF assay buffer with Ca2+ (no RTF in test wells), artifact counterscreen
Active and inactive are the calls of the source.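 How the source made its calls: active means EC50 at or below 10 µM; inactive means EC50 above 10 µM.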

Some entries whose results are on file:
>  <smi>
COc1cc(-c2c(-c3ccc4c(c3)OCO4)noc2C)ccc1F

>  <reported_measurement>
> 71.4 µM (inactive)

$$$$
>  <smi>
CN(/N=C/c1ccc(N(C)C)cc1)C1=NS(=O)(=O)c2ccccc21

>  <reported_measurement>
22.5 µM (inactive)

$$$$
>  <smi>
CC1(C)CCN2CCC(C)(C)c3c(O)ccc1c32

>  <reported_measurement>
5.84 µM (active)

$$$$

Ask | Can you share its EC50? I mean this compound: COc1ccc(S(=O)(=O)N2CN(Cc3ccco3)c3nc4ccccc4nc32)cc1
Reply | > 71.5 µM (inactive)

Ask | And for CCCNC(=O)Cn1c(=O)/c(=C\c2ccc(-c3ccc([N+](=O)[O-])cc3)o2)s/c1=C\C(=O)C(C)(C)C ?
Reply | 0.335 µM (active)

----------
# test_method_notes: compound autofluorescence in calcium buffer – biochemical, fluorescence, no RTF in test wells, artefact control for cardiac thin filament activator project, dose response (AID 504697);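 also: emission near 535 nm under roughly 485 nm excitation as for IANBD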
# recorded_conditions: compound-only fluorescence in RTF assay buffer with Ca2+ (no RTF in test wells), artifact counterscreen
Active and inactive are the calls of the source.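 Rule for the calls: active = EC50 at or below 10 µM; inactive = EC50 above 10 µM.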
Your reply should match one of these outcome classes. active, inactive

>  <molecule>
CC(C)CNC(=S)NC(=O)c1ccccc1Cl

>  <discrete_label>
inactive

$$$$
>  <molecule>
CNC(=O)N(O)C1N(C)C(=O)N(CC(=O)OC)C1(C)C (stereo unspecified)

>  <discrete_label>
inactive

$$$$
>  <molecule>
COC(=O)C1=C(C)NC(=O)/C1=C\N(C)C

>  <discrete_label>
inactive

$$$$
>  <molecule>
COc1ccccc1NS(=O)(=O)c1cc([N+](=O)[O-])ccc1N/N=C/c1c(C)[nH]c2ccccc12

>  <discrete_label>
active

$$$$
>  <molecule>
COc1ccc(C(=O)Nn2cnc3scc(-c4cccs4)c3c2=O)c(O)c1

>  <discrete_label>
inactive

$$$$

# evaluate next
Ask | Recorded call for COc1ccc(/C=N/NC(=O)c2cccnc2)cc1CN1CCOCC1 ?
Reply | inactive
